The compounds listed here are annotated with their conversion to 1,5-cz-[Ln(Lig)], Lu^III.
- experiment: Formation of 1,5-cz-[Ln(Lig)] from Lig and Ln^III ions (metal dependent click-zip), MOPS/NaOH buffer pH 7.0, analytical HPLC (Charts 1, 2)
- details: Lu^III; after 1 week at 80° C.; MOPS/NaOH buffer pH 7.0

>  <compound>
C#Cc1cccc(CN2CCN(CC(=O)O)CCN(Cc3cc(-c4ccc(C(=O)O)cc4)cc(CN=[N+]=[N-])n3)CCN(CC(=O)O)CC2)n1 [TD742]

>  <conversion to 1,5-cz-[Ln(Lig)], Lu^III / %>
94

$$$$
>  <compound>
C#Cc1cccc(CN2CCN(CCC(=O)O)CCN(Cc3cccc(CN=[N+]=[N-])n3)CCN(CCC(=O)O)CC2)n1 [TD801]

>  <conversion to 1,5-cz-[Ln(Lig)], Lu^III / %>
0

$$$$
>  <compound>
C#Cc1cccc(CN2CCN(CC(=O)O)CCN(Cc3cc(N(C)C)cc(CN=[N+]=[N-])n3)CCN(CC(=O)O)CC2)n1 [TD1176]

>  <conversion to 1,5-cz-[Ln(Lig)], Lu^III / %>
96

$$$$
>  <compound>
C#Cc1cccc(CN2CCN(CC(=O)O)CCN(Cc3cc(-c4ccccc4)cc(CN=[N+]=[N-])n3)CCN(CC(=O)O)CC2)n1 [TD647]

>  <conversion to 1,5-cz-[Ln(Lig)], Lu^III / %>
96

$$$$
>  <compound>
C#Cc1cccc(CN2CCN(CC(=O)O)CCN(Cc3cc(Cl)cc(CN=[N+]=[N-])n3)CCN(CC(=O)O)CC2)n1 [TD764]

>  <conversion to 1,5-cz-[Ln(Lig)], Lu^III / %>
96

$$$$
>  <compound>
CC(C)(C#Cc1cccc(CN2CCN(CC(=O)O)CCN(Cc3cccc(CN=[N+]=[N-])n3)CCN(CC(=O)O)CC2)n1)NC(=O)OC(C)(C)C [TD1105]

>  <conversion to 1,5-cz-[Ln(Lig)], Lu^III / %>
1

$$$$
>  <compound>
[N-]=[N+]=NCc1cccc(CN2CCN(CC(=O)O)CCN(Cc3cccc(C#CI)n3)CCN(CC(=O)O)CC2)n1 [TD1204]

>  <conversion to 1,5-cz-[Ln(Lig)], Lu^III / %>
83

$$$$

* * *

The compounds listed here are annotated with their conversion to 1,5-cz-[Ln(Lig)], Pr^III.
- experiment: Formation of 1,5-cz-[Ln(Lig)] from Lig and Ln^III ions (metal dependent click-zip), MOPS/NaOH buffer pH 7.0, analytical HPLC (Charts 1, 2)
- details: Pr^III; after 1 week at 80° C.; MOPS/NaOH buffer pH 7.0

>  <compound>
[N-]=[N+]=NCc1cc(-c2ccccc2)cc(CN2CCN(CC(=O)O)CCN(Cc3cccc(C#CCN)n3)CCN(CC(=O)O)CC2)n1 [TD722]

>  <u>
%

>  <conversion to 1,5-cz-[Ln(Lig)], Pr^III>
3

$$$$
>  <compound>
C#Cc1cccc(CN2CCN(CC(=O)O)CCN(Cc3cc(N(C)C)cc(CN=[N+]=[N-])n3)CCN(CC(=O)O)CC2)n1 [TD1176]

>  <u>
%

>  <conversion to 1,5-cz-[Ln(Lig)], Pr^III>
82

$$$$
>  <compound>
C#Cc1cccc(CN2CCN(CP(=O)(O)c3ccccc3)CCN(Cc3cccc(CN=[N+]=[N-])n3)CCN(CP(=O)(O)c3ccccc3)CC2)n1 [TD921]

>  <u>
%

>  <conversion to 1,5-cz-[Ln(Lig)], Pr^III>
55

$$$$
>  <compound>
C#Cc1cccc(CN2CCN(CC(=O)NCC(=O)O)CCN(Cc3cc(-c4ccccc4)cc(CN=[N+]=[N-])n3)CCN(CC(=O)NCC(=O)O)CC2)n1 [TD778]

>  <u>
%

>  <conversion to 1,5-cz-[Ln(Lig)], Pr^III>
0

$$$$
>  <compound>
CC(C)(N)C#Cc1cccc(CN2CCN(CC(=O)O)CCN(Cc3cc(-c4ccccc4)cc(CN=[N+]=[N-])n3)CCN(CC(=O)O)CC2)n1 [TD1054]

>  <u>
%

>  <conversion to 1,5-cz-[Ln(Lig)], Pr^III>
10

$$$$
>  <compound>
[N-]=[N+]=NCc1cccc(CN2CCN(CC(=O)O)CCN(Cc3cccc(C#CC45CC6CC(CC(C6)C4)C5)n3)CCN(CC(=O)O)CC2)n1 [TD992]

>  <u>
%

>  <conversion to 1,5-cz-[Ln(Lig)], Pr^III>
33

$$$$
>  <compound>
[N-]=[N+]=NCc1cccc(CN2CCN(CC(=O)O)CCN(Cc3cccc(C#CI)n3)CCN(CC(=O)O)CC2)n1 [TD1204]

>  <u>
%

>  <conversion to 1,5-cz-[Ln(Lig)], Pr^III>
0

$$$$
>  <compound>
C#Cc1cccc(CN2CCN(CC(=O)O)CCN(Cc3cccc(CN=[N+]=[N-])n3)CCN(CP(=O)(O)O)CC2)n1 [TD714]

>  <u>
%

>  <conversion to 1,5-cz-[Ln(Lig)], Pr^III>
80

$$$$
>  <compound>
[N-]=[N+]=NCc1cccc(CN2CCN(CC(=O)O)CCN(Cc3cccc(C#Cc4ccccc4)n3)CCN(CC(=O)O)CC2)n1 [TD944]

>  <u>
%

>  <conversion to 1,5-cz-[Ln(Lig)], Pr^III>
6

$$$$
>  <compound>
CC(C)(C#Cc1cccc(CN2CCN(CC(=O)O)CCN(Cc3cccc(CN=[N+]=[N-])n3)CCN(CC(=O)O)CC2)n1)NC(=O)OC(C)(C)C [TD1105]

>  <u>
%

>  <conversion to 1,5-cz-[Ln(Lig)], Pr^III>
0

$$$$
>  <compound>
C#Cc1cccc(CN2CCN(CC(=O)O)CCN(Cc3cc(Cl)cc(CN=[N+]=[N-])n3)CCN(CC(=O)O)CC2)n1 [TD764]

>  <u>
%

>  <conversion to 1,5-cz-[Ln(Lig)], Pr^III>
35

$$$$
>  <compound>
C#Cc1cccc(CN2CCN(CC(=O)O)CCN(Cc3cc(C(=O)OC(C)C)cc(CN=[N+]=[N-])n3)CCN(CC(=O)O)CC2)n1 [TD1148]

>  <u>
%

>  <conversion to 1,5-cz-[Ln(Lig)], Pr^III>
0

$$$$
>  <compound>
C#Cc1cccc(CN2CCN(CC(=O)O)CCN(Cc3cccc(CN=[N+]=[N-])n3)CCN(CC(=O)O)CC2)n1 [TD556]

>  <u>
%

>  <conversion to 1,5-cz-[Ln(Lig)], Pr^III>
64

$$$$
